Test: NCI Yeast Anticancer Drug Screen. Data for the cln2 rad14 strain (AID 165);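 note: 0% = growth equal to vehicle treated cultures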
Conditions: S. cerevisiae cln2 rad14 strain, at 5.0 µM (retest, dose inferred, filed as 0.5), active compounds read high
About 79,000 compounds went through this panel and 15% of them were active in at least one assay; those are over-represented in the sample as a whole.
MEASUREMENT TYPE: growth inhibition (%)

INSERT INTO results (compound, test_value) VALUES
  ('CC1CCN(CCC(=O)c2ccc(Cl)cc2)CC1', 14),
  ('O=C(/C=C\c1ccc(Cl)cc1Cl)c1cccs1', 9),
  ('CC(=O)Oc1ccc2c(c1)Cc1cc(N=C3C=CC(=O)O3)ccc1-2', 19),
  ('COC1=CC(=O)C(C2(OC(C)C)OC(=O)C(Cl)=C2Cl)=CC1=O (stereo not given)', 30),
  ('O=C(OCC=C1CCCC1)c1cc([N+](=O)[O-])cc([N+](=O)[O-])c1', -24),
  ('C/C(=N/NC(=S)N1CCCCCC1)c1cccc(/C(C)=N\NC(=S)N2CCCCCC2)n1', 9),
  ('CNC(=O)OCc1c(COC(=O)NC)c(-c2ccc(Cl)c(Cl)c2)n2c1CCC2', 38),
  ('O=[N+]([O-])c1cccc([N+](=O)[O-])c1S(=O)(=O)c1ccccc1', -8),
  ('N#C/C(=C\c1cccc(OCc2ccccc2)c1)c1ccc([N+](=O)[O-])cc1', 33),
  ('CC1(C)C(=O)OC(n2cc(F)c(=O)[nH]c2=O)C1=O (stereo not given)', 27);

---

Measured growth inhibition, listed per entry for reference.
Assay: NCI Yeast Anticancer Drug Screen. Data for the rad50EPP+ strain (AID 151);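 note: 0% = growth of vehicle-treated control cultures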
Settings: S. cerevisiae rad50 mutant strain, at 3.7 µM, active compounds read high
Description: Growth inhibition of yeast strains with defined genetic alterations is measured as a screen for potential anti-cancer activity. Selected strains with alterations in DNA damage repair or cell cycle control were exposed to compounds and growth inhibition was measured relative to vehicle treated controls. The strain used in this assay is rad50EPP+
This is part of a sample that, as a whole, favours compounds with a hit. Of some 79,000 tested, about 15% had one in any assay.
MEASUREMENT TYPE: growth inhibition (%)

INSERT INTO assay_data (compound, unit_spec, test_value) VALUES
  ('O=C(Nc1ccccc1)OCCc1ccc(Cl)c(Cl)c1', '%', 26),
  ('COc1ccc(O)c(/C=N\Nc2ccccc2)c1', '%', -18),
  ('Nc1ncncc1C(C1=C(O)COC1=O)C1=C(O)COC1=O', '%', 10),
  ('S=C(Nc1ccc(Cl)cc1)SC1CCCCC1', '%', 22),
  ('Cc1c(Cl)ccc2c1S(=O)(=O)c1cccc(Cl)c1-2', '%', 12),
  ('COC(=O)c1ccc(CCC2=CC(=O)C(Br)=CC2=O)cc1', '%', 37),
  ('CC(=O)OC1CCC2(C)C(=CCC3C4CCC5(OC6CC(C)CN(C(C)=O)C6C5C)C(C)=C4C(=O)C32)C1 (stereo unspecified)', '%', -28),
  ('CCCCCCc1cc(C(=O)OC/C(C)=N/NC(N)=O)c2ccccc2n1', '%', -3),
  ('Cc1ccc(N)c(S)c1', '%', -39),
  ('CC(=O)Oc1cc(-c2cc(OC(C)=O)c(OC(C)=O)c3ccccc23)c2ccccc2c1OC(C)=O', '%', 6),
  ('CCC[CH2][Ge]([CH2]CCC)([CH2]CCC)[O]C(=O)C(OC)c1ccccc1 (stereo unspecified)', '%', 3);
